- Measured Target: T1, LAG-3-hFc protein (human LAG-3 extracellular region with hFc tag) (human, UniProt P18627 23-450)
- T1 construct: also called hLAG-3-hFc; LAG-3 protein; not shown: human IgG Fc fragment (hFc) of the pCpC vector
- T1 sequence: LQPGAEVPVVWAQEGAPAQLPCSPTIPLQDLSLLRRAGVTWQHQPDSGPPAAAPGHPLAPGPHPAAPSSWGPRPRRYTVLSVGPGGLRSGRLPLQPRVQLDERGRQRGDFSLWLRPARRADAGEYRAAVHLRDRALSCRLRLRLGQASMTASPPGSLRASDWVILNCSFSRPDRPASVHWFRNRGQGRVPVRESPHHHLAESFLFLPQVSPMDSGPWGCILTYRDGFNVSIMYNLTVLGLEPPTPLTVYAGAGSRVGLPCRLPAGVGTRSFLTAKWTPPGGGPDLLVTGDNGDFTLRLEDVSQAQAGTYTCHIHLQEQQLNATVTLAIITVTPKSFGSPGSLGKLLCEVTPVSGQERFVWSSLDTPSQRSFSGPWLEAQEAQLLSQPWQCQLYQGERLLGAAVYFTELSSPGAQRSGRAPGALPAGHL
- Assay Comment: FACS, inhibition of LAG-3-hFc binding to MHC II on Raji cells, antibody 0.274 nM
Reported Metric: Inhibition rate (%)
Answers are plain numbers, in %.

| Binder | Result Unit | Inhibition rate (%) |
| --- | --- | --- |
| 105F1E10 mouse-human chimeric antibody (antibody, V domains shown, also called mAb009-105F1E10) VH: EVQLQQSGPELVKPGASVKMSCRASGYTFTDFKMHWMKQSHGKSLEWIGYIAPNNGGTAYNQKFRGKATLTVNESSNTAYMELRSLTSEDSAVYYCVDWDDVDYWGQGTTLTVSS VL: DIKMTQSPSSMYASLGERVTITCKASQDINSYLSWFQQKSGKSPKTLIYRANRLVDGVPSRFSGSGSGQDYSLTISSLEYEDMGIYYCLQYVEFPLTFGAGTKLELK | % | -10.1 |

Enquiry: Requested read-out: Inhibition rate (%). Entry: 556F6B8 mouse-human chimeric antibody (antibody, V domains shown, also called mAb123-556F6B8; 556F8B8) VH: RVQLKQSGPGLVQPSQSLSITCTVSGFSLIKYGVHWVRQSPGEGLEWLGVIWRGGITDYNAAFMSRLSITKDNSKSQVFFKMNSLQADDTAIYYCAKWDGPLAMDYWGQGTSVTVSS VL: DIVMTQSHKFLSTSVGDRVSITCKASQDVGTTVAWYQQKPGQSPKLLIYWASTRHTGVPDRFTGSGSGTDFTLTISNVQSEDLADYFCQQYSSYPYTFGGGTKLEIK
Return: 21.5
